Target: T1, α5β1 integrin isolated from human placental extract (human, UniProt P08648 42-1049; P05556 21-798)
T1 construct: coated on plastic wells or captured by anti-α5 antibody; also called fibronectin receptor
T1 sequence (P08648 42-1049, chain 1 of 2): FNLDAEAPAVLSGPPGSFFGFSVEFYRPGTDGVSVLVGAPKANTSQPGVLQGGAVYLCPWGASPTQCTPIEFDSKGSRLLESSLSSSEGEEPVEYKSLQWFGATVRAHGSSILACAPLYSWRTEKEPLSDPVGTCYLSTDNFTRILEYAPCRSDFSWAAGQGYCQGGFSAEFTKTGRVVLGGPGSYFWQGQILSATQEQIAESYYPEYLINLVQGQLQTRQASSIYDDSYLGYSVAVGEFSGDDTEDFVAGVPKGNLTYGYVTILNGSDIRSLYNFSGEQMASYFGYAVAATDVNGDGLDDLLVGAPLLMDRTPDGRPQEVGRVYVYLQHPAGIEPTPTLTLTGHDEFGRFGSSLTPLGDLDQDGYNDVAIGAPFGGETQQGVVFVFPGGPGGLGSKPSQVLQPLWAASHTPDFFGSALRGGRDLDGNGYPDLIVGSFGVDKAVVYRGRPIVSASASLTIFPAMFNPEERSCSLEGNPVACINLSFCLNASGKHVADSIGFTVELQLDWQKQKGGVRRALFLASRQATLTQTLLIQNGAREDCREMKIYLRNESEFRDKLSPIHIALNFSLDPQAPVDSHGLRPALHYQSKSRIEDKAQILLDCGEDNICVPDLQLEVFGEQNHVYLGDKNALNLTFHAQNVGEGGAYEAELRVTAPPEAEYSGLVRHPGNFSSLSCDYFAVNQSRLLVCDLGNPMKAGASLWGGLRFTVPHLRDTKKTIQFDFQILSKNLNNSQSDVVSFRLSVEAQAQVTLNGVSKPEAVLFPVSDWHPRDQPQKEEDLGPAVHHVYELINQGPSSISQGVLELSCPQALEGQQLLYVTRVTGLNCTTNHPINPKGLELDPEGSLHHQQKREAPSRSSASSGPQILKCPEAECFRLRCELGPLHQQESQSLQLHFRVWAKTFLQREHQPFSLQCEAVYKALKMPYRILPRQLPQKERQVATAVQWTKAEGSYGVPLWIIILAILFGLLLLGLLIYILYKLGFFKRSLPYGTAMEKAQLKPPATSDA
T1 sequence (P05556 21-798, chain 2 of 2): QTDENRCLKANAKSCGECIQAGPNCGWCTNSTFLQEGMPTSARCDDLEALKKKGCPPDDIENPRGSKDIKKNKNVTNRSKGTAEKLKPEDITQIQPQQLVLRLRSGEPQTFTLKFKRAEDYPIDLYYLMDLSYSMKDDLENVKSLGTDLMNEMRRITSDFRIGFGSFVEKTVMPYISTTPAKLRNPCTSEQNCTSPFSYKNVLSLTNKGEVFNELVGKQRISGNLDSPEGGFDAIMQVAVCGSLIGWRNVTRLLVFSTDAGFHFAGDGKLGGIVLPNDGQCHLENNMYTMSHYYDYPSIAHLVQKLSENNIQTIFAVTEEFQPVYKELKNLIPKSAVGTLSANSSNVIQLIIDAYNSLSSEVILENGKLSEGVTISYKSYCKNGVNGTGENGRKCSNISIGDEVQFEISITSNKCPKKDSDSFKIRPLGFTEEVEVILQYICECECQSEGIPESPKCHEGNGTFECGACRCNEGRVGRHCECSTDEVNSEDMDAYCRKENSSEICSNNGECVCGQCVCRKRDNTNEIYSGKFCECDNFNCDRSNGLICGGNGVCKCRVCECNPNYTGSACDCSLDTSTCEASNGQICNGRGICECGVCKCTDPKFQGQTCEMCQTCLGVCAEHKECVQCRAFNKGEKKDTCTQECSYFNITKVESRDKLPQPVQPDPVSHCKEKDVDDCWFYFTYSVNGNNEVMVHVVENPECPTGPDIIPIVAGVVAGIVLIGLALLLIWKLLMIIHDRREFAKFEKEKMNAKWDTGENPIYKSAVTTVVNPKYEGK
Assay: phage panning on coated integrin
REPORTED_METRIC: binding result

CRGDCLPTPR (on fuse 5 phage, fused to pIII) [CRGDCLPTPR phage]; binds
CRGDRAWC (on fuse 5 phage, fused to pIII) [CRGDRAWC phage]; binds
CWRGDHVMPC (on fuse 5 phage, fused to pIII) [CWRGDHVMPC phage]; binds
CRGDGWLC (on fuse 5 phage, fused to pIII) [CRGDGWLC phage]; binds
CRGDGFLC (on fuse 5 phage, fused to pIII) [CRGDGFLC phage]; binds
CRGDAAWC (on fuse 5 phage, fused to pIII) [CRGDAAWC phage]; binds
CGQGMHRLAC (on fuse 5 phage, fused to pIII) [CGQGMHRLAC phage]; binds
CGADSEEGPC (on fuse 5 phage, fused to pIII) [CGADSEEGPC phage]; binds
CRGDGLWC (on fuse 5 phage, fused to pIII) [CRGDGLWC phage]; binds
CRGDGYCVFF (on fuse 5 phage, fused to pIII) [CRGDGYCVFF phage]; binds

binding result for CRGDGLMCGL (on fuse 5 phage, fused to pIII) [CRGDGLMCGL phage] is binds

binding result for CRGDGMLC (on fuse 5 phage, fused to pIII) [CRGDGMLC phage] is binds

binding result for CPVRRGDGWC (on fuse 5 phage, fused to pIII) [CPVRRGDGWC phage] is binds

binding result for CRGDGLDC (on fuse 5 phage, fused to pIII) [CRGDGLDC phage] is binds

binding result for CLRGDGLALC (on fuse 5 phage, fused to pIII) [CLRGDGLALC phage] is binds

binding result for CRGDGWIC (on fuse 5 phage, fused to pIII) [CRGDGWIC phage] is binds
